B1: TPR t1 (parent)
chain: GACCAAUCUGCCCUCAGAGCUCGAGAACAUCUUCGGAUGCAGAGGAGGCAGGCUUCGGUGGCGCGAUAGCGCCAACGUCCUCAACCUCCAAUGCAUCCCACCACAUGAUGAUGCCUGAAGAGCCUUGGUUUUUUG

- Variants of: B1
- PROTOCOL_SUMMARY: polymerase ribozyme fitness, log enrichment relative to wild type (log ratio); higher = more active; in vitro selection for triplet polymerase activity
MEASURED_PROPERTY: polymerase ribozyme fitness (log ratio)
Could you respond with only the numeric value?

Look over these answered cases.
// recorded polymerase ribozyme fitness (log ratio) for A43U G45U C115G : -3.44

// recorded polymerase ribozyme fitness (log ratio) for U7G G17U C28U A90C U106A : -2.82

// recorded polymerase ribozyme fitness (log ratio) for G36C U87G U116A : -5.07

// recorded polymerase ribozyme fitness (log ratio) for A6G C8G C12A C28A C56G U81C U112A : -4.51

// recorded polymerase ribozyme fitness (log ratio) for A27G G69A : -2.88

Continuing:
// recorded polymerase ribozyme fitness (log ratio) for C56A G107A : -3.75

// recorded polymerase ribozyme fitness (log ratio) for C70U C82A G113A : -1.84

// recorded polymerase ribozyme fitness (log ratio) for C73U C98A : -4.94
